Reference source: PubChem BioAssay (EPA / NIEHS)

- Read-out: Vascular endothelial growth factor receptor 2 (Homo sapiens)
- assayName: BSK_4H_VEGFRII: BioMAP Diversity Plus: 4H Assay for Vascular endothelial growth factor receptor 2 (VEGFR2) Biomarker Activity (AID 2283031)
- statedConditions: primary human endothelial cells (HUVEC); actives raise or lower the signal
The source made the active and inactive calls. How the source made its calls: active means hit-call score of the fitted dose curve at least 0.9, where 1 is the maximum; inactive means score below 0.9.
Choose one outcome from this list and give only that: active, inactive

Some solved cases for reference:
In [3]: df
Out[3]:
                                   molecule  classassignment
0  CCO[Si](CCC(F)(F)C(F)(F)C(F)(F)C(F)(F)C(F)(F)C(F)(F)F)(OCC)OCC         inactive
1  C=C(C)C(=O)OCCC(F)(F)C(F)(F)C(F)(F)C(F)(F)C(F)(C(F)(F)F)C(F)(F)F         inactive
2  CC(C)(C)C(=O)CC(=O)C(F)(F)C(F)(F)C(F)(F)F         inactive
3              CO[Si](OC)(c1ccccc1)c1ccccc1         inactive
4  FC(F)(Br)C(F)(F)C(F)(F)C(F)(F)C(F)(F)C(F)(F)Br         inactive
5          CC(=O)Nc1ccc(N=Nc2cc(C)ccc2O)cc1         inactive
6                  OCC(F)(F)C(F)(F)C(F)(F)F         inactive
7  O=C(O)C(F)(OC(F)(F)C(F)(OC(F)(F)C(F)(F)C(F)(F)F)C(F)(F)F)C(F)(F)F (centres undefined)         inactive

// query Given OCC(F)(F)C(F)(F)C(F)(F)C(F)F , state the outcome it received in this test.
// result inactive

// query How did this test come out for O=C(O)C(F)(F)C(F)(F)C(F)F ?
// result inactive

// query Hello, I am checking results. What call was entered for O=C(CC(=O)C(F)(F)C(F)(F)F)C(F)(F)F ?
// result inactive
